System: Streptococcus pyogenes
Experiment: Antibacterial activity against Streptococcus pyogenes ATCC 12344 assessed as bacterial growth inhibition incubated for 24 hrs by microdilution assay
Assay type: functional
property.name: MIC (µg/mL)

> print(dat)
                                        smi  property.name  measured
1  CC(=O)/C=C\C(=O)/C(C)=C/C=C/C(C)=C1\C(=O)C[C@H]2[C@@]3(C)CCC(=O)C(C)(C)[C@@H]3CC[C@]12C            MIC       0.4
2  CC(=O)O[C@H]1CC[C@@]2(C)[C@@H](CC[C@]3(C)/C(=C(C)/C=C/C=C(\C)c4ccc(C)c(=O)o4)C(=O)C[C@@H]23)C1(C)C            MIC         2
3  CC(=O)/C=C/C(=O)/C(C)=C/C=C/C(C)=C1/C(=O)C[C@H]2[C@@]3(C)CCC(=O)C(C)(C)[C@@H]3CC[C@]12C            MIC       1.8

I = CC(=O)/C=C\C(=O)/C(C)=C/C=C/C(C)=C1\C(=O)C[C@H]2[C@@]3(C)CC[C@H](OC(C)=O)C(C)(C)[C@@H]3CC[C@]12C
II = CC(=O)/C=C\C(=O)/C(C)=C/C=C/C(C)=C1/C(=O)C[C@H]2[C@@]3(C)CC[C@H](OC(C)=O)C(C)(C)[C@@H]3CC[C@]12C
(Q) Which of the two gives a bigger number for MIC: I or II ? In your reply, give the label of the chosen option.
(A) I
